A collection of binders and their measured MFI ratio over secondary antibody
- target: T1, Full length mouse CD98hc on CHO cells (mouse, UniProt P10852 1-526)
- T1 construct: CHO cells stably overexpressing it; also called CHO-mouse CD98hc; CHO-mCD98hc
- T1 sequence: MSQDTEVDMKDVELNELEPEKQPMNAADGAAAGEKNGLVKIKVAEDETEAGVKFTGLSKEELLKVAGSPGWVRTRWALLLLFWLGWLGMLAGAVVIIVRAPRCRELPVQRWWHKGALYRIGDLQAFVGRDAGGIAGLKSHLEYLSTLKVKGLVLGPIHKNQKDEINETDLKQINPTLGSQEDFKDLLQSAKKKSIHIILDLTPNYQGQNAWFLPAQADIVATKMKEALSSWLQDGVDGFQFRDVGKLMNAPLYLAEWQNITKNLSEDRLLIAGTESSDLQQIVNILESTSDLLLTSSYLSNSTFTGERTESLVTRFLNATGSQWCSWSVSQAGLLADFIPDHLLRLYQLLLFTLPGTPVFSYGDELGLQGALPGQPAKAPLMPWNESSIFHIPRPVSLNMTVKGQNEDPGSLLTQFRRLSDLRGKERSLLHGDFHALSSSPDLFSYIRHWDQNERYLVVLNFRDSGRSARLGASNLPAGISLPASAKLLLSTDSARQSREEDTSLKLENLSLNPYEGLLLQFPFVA
- measurement_protocol: FACS, hybridoma supernatant
Answer field: number only, no words.

Reference set (2 entries):
binder | property_label | data_value
CD98HC.04.054 (antibody, V domains shown, hybridoma IgG) VH: QVQLQQSAAELARPGASVKMSCETSGYTFTRYTMNWVKQRPGQGLDWIGYINPSSGYAEYNQKFRGKTTLTADKSSSTAYIQLNSLTSEDSAVYYCVRYDGNYVYWGQGTTLTVSS VL: DIVMTQSQKFMSTSFGDRVDITCKASQNVGSAVAWYQQKPGQSPKLLIYSASNRYTGVPDRFTGSGSGTDFTLTINNMQSADLADYFCQQYNFYPLTFGAGTKLDLK | MFI ratio over secondary antibody | 1.2
CD98HC.04.065 (antibody, V domains shown, hybridoma IgG) VH: EVQLQESGPSLVKPSQTLSLTCSVTGDSITSGYWNWIRKFPGNKLEYMGYISYSGRTYYNPSLKSRVSITRDTSKNQYYLQLNSVTTEDTATYYCQRHVIYDYTWFAYWGQGTLVTVSA VL: QIVLTQSPAIMSASPGEKVTISCSASSSVHYMYWFQQKPGSSPKPWIYRTSILASGVPDRFSGSGSGTSYSLTISSMEAEDAATYYCQQYQSYPLTFGAGTKLELK | MFI ratio over secondary antibody | 1.2

q: Fill blank: measured MFI ratio over secondary antibody of the binder CD98HC.04.011 (antibody, V domains shown, hybridoma IgG) VH: DVQLQESGPDLVKPSQSLSLTCSVTVYSFTSVYSWHWIRQFPGNKLEWMGYIHDSGTTNYNPSLKSRISVTRDTSKNQFFLQLNSVTTEDTATYYCARGRPYGYDGFAYWGQGTLVTVSA VL: DIQMTQSSSYLSVSLGDRVTITCKASDHINNWLAWYQQKPGNAPRLLITGAVNLETGVPSRFSGSGSGKDYTLSITSLQTEDVATYYCQQYWSIPRTFGGGTNLEIK is ____.
a: 1.1
